Tested on: NCI/ADR-RES ovarian
method_description: NCI tumour cell line growth inhibition, 48 h
property: TGI

{"compound": "Cn1cc(C2=C(c3c4n(c5ccccc35)CCC(CN)C4)C(=O)NC2=O)c2ccccc21 (stereo not drawn)", "result": "25 µM"}
{"compound": "CCCc1cc(=O)n2c(C(=O)Nc3cccc(C(=O)OCC)c3)c(C(=O)Nc3ccc(F)cc3)sc2n1", "result": "> 140 µM"}
{"compound": "O=c1cc(CSc2c(-c3ccccc3)c(=O)n(-c3ccccc3)c(=S)n2-c2ccccc2)[nH]c(=O)[nH]1", "result": "> 100 µM"}
{"compound": "O=C(CCCN1CCC(Nc2ccccc2)(c2nnnn2C2CCCCC2)CC1)c1ccc(F)cc1", "result": "> 100 µM"}
{"compound": "CCOC(=O)c1cc2c3c(c(C(C)=O)c(O)c2[nH]1)N(C(C)=O)CC3", "result": "> 100 µM"}
{"compound": "COC(=O)[C@H](Cc1c[nH]c2ccccc12)NP(=O)(O)OC[C@H]1O[C@@H](n2cc(C)c(=O)[nH]c2=O)C[C@@H]1N=[N+]=[N-]", "result": "> 100 µM"}
{"compound": "NC(=O)c1cccc(N=c2oc3ccc(Br)cc3cc2-c2nc3ccccc3[nH]2)c1", "result": "35.9 µM"}
{"compound": "Cc1ccc(C(=O)Cn2c(C(=O)/C=C/c3cccs3)nc3ccccc32)cc1", "result": "> 100 µM"}
{"compound": "O=C(NC(=O)c1ccccc1[N+](=O)[O-])Nc1ccc(Oc2ncc(Cl)cn2)c([N+](=O)[O-])c1", "result": "3.15 µM"}
{"compound": "C=C/C(C)=C\\CC1[C@](C)(O)CC[C@H]2C(C)(C)C(O)CC[C@]12C (stereo partly drawn)", "result": "> 100 µM"}
{"compound": "CN(C)CCCNC(=O)CCNC(=O)c1cc(NC(=O)c2cc(NC(=O)c3cc(NC(=O)c4nccn4C)cn3C)cn2C)cn1C", "result": "> 100 µM"}
{"compound": "CC(C)(C)OC(=O)NC(Cc1ccc(O)cn1)C(=O)O (stereo not drawn)", "result": "> 100 µM"}
{"compound": "Cc1ccc(-c2cc3c4c(nc5ccccc53)C(=O)c3cccnc3-c4n2)cc1", "result": "49.7 µM"}
{"compound": "CCOC(=O)Nc1nc2ccc(Br)cc2s1", "result": "> 50 µM"}
{"compound": "CN(C)CCCSc1nc2c(c(=N)n1-c1ccccc1)c(=S)n(-c1ccccc1)c(=S)n2-c1ccccc1", "result": "7.38 µM"}
{"compound": "COc1ccc(Cn2cc3c(c2-c2ccccc2)CCc2cnoc2-3)cc1OC", "result": "1.91 µM"}
{"compound": "CCOC(=O)C1(C(=O)OCC)C[C@@H](C)[C@@H](O)C1", "result": "> 100 µM"}
{"compound": "CN1CCC2(CC1)NC(=O)c1c(c3ccc(Cl)c(Cl)c3n1C)C2C#N (stereo not drawn)", "result": "23 µM"}

----------
Tested on: SNB-75 CNS
method_description: NCI tumour cell line growth inhibition, 48 h

{"molecule": "COc1cc2oc(-c3ccc4c(c3)OCO4)c(OC)c(=O)c2c(OC)c1O", "system": "SNB-75 CNS", "TGI": "97.6 µM"}
{"molecule": "COc1cc(/C=N\\c2nc(-c3ccc(NS(=O)(=O)c4ccc(Cl)c(OC)c4)cc3)cs2)ccc1O", "system": "SNB-75 CNS", "TGI": "> 100 µM"}
{"molecule": "COC(=O)c1ccccc1NC(=NC1CCCCCC1)NS(=O)(=O)c1ccc(C)cc1", "system": "SNB-75 CNS", "TGI": "> 100 µM"}
{"molecule": "CCOC(=O)C1(C(=O)OCC)C[C@@H](C)[C@@H](O)C1", "system": "SNB-75 CNS", "TGI": "> 100 µM"}
{"molecule": "CC(C)(C)OC(=O)NC(Cc1ccc(O)cn1)C(=O)O (stereo not given)", "system": "SNB-75 CNS", "TGI": "> 100 µM"}
{"molecule": "CNC(=O)NCCN1CC2CCC(CC2)C1", "system": "SNB-75 CNS", "TGI": "> 10 µM"}
{"molecule": "O=C(/C=C/c1ccc(C(F)(F)F)cc1)c1c([O-])on[n+]1-c1ccccc1", "system": "SNB-75 CNS", "TGI": "5.87 µM"}
{"molecule": "O=C1C=CC(=O)c2c1ccc1c3ccccc3n(-c3ccccc3)c21", "system": "SNB-75 CNS", "TGI": "40.2 µM"}
{"molecule": "N#CC1=C(c2ccccc2)C(=C2Nc3ccccc3N2)C2S/C(=C\\c3ccccc3)C(=O)N2C1=N (stereo not given)", "system": "SNB-75 CNS", "TGI": "3.77 µM"}
{"molecule": "N/C(=N/N=C/c1ccccc1)N/N=C\\c1ccccc1", "system": "SNB-75 CNS", "TGI": "> 100 µM"}
